- protocolText: Whole plasma pharmacokinetics in dogs (HPLC)
- Assay type: in vivo, dog
- experimentalParameters: collie crossbred, dog, plasma, po, 12.5 mg/kg, dog C, 12.5 mg kg-1 oral
reportedMetric: AUC(0-inf) (µg·h/mL)
The answer is to be given in µg·h/mL; state only the numeric part.

Fill in: AUC(0-inf) of O=C(Cn1ccnc1[N+](=O)[O-])NCc1ccccc1 [benznidazole, N-benzyl-(2-nitroimidazolyl) acetamide] is ___
419

* * *

- protocolText: Penetration into brain and peripheral nerve in dogs
- Format: in vivo, dog
- experimentalParameters: dog, peripheral nerve/plasma, po, 25 mg kg-1, dog G, 25 mg kg-1 oral, 4 h; read-out: peripheral nerve/plasma ratio
reportedMetric: Kp at 4 h
Write the number on its own, no unit after it.

Any idea what its Kp at 4 h is? The compound is O=C(Cn1ccnc1[N+](=O)[O-])NCc1ccccc1 [benznidazole, N-benzyl-(2-nitroimidazolyl) acetamide]
0.96

* * *

- protocolText: 24 h urinary recovery of unchanged drug in mice
- Assay type: in vivo, mouse
- experimentalParameters: male, BALB/c, mouse, urine, ip, 650 mg kg-1, BALB/c mice, 650 mg kg-1 i.p., experiment 1
reportedMetric: dose excreted (%)
Form entry: value (%) — number only.

Can you look up the measured dose excreted of O=C(Cn1ccnc1[N+](=O)[O-])NCc1ccccc1 [benznidazole, N-benzyl-(2-nitroimidazolyl) acetamide] for me?
4.8

* * *

- protocolText: Tissue penetration in dogs bearing spontaneous neoplasms
- Format: in vivo, dog
- experimentalParameters: dog, liver/whole plasma, dog, second of the two values obtained; read-out: liver/whole plasma ratio
reportedMetric: Kp

Recorded Kp of O=C(Cn1ccnc1[N+](=O)[O-])NCc1ccccc1 [benznidazole, N-benzyl-(2-nitroimidazolyl) acetamide] , please.
0.51

* * *

- protocolText: Penetration into EMT6 and KHT mouse tumours
- Assay type: in vivo
- experimentalParameters: tumour / whole plasma; transplantable mouse tumours; read-out: steady-state tumour/whole plasma ratio (about)
reportedMetric: Kp

Reported Kp, molecule O=C(Cn1ccnc1[N+](=O)[O-])NCc1ccccc1 [benznidazole, N-benzyl-(2-nitroimidazolyl) acetamide] : ____
~0.9

* * *

- Tested on: plasma proteins
- protocolText: In vivo plasma protein binding in dogs (plasma ultrafiltrate)
- experimentalParameters: collie crossbred, beagle, dog, plasma, iv, dogs, apart from the two i.v. time courses; read-out: in vivo protein binding, range
- Text: Br. J. Cancer (1984), 50, 291-303 Preclinical pharmacokinetics of benznidazole P. Workman', R.A.S. White2, M.I. Walton', L.N. Owen2* & P.R. Twentyman' 1MRC Clinical Oncology and Radiotherapeutics Unit, MRC Centre, Hills Road, Cambridge CB2 2QH, and 2Department of Clinical Veterinary Medicine, University of Cambridge, Madingley Road, Cambridge CB3 OES, UK. […]
reportedMetric: fraction unbound

Request the reported fraction unbound associated with O=C(Cn1ccnc1[N+](=O)[O-])NCc1ccccc1 [benznidazole, N-benzyl-(2-nitroimidazolyl) acetamide]
0.41 to 0.48

* * *

- protocolText: Penetration into brain and peripheral nerve in dogs
- Type: in vivo, dog
- experimentalParameters: dog, peripheral nerve/plasma, po, 25 mg kg-1, dog H, 25 mg kg-1 oral, 1 h; read-out: peripheral nerve/plasma ratio
- Description: Br. J. Cancer (1984), 50, 291-303 Preclinical pharmacokinetics of benznidazole P. Workman', R.A.S. White2, M.I. Walton', L.N. Owen2* & P.R. Twentyman' 1MRC Clinical Oncology and Radiotherapeutics Unit, MRC Centre, Hills Road, Cambridge CB2 2QH, and 2Department of Clinical Veterinary Medicine, University of Cambridge, Madingley Road, Cambridge CB3 OES, UK. […]
reportedMetric: Kp at 1 h

Any idea what Kp at 1 h was measured for O=C(Cn1ccnc1[N+](=O)[O-])NCc1ccccc1 [benznidazole, N-benzyl-(2-nitroimidazolyl) acetamide] ?
0.6

* * *

- protocolText: Whole plasma pharmacokinetics in dogs (HPLC)
- Type: in vivo, dog
- experimentalParameters: collie crossbred, dog, plasma, po, 25 mg/kg, dog C, 25 mg kg-1 oral; 95% confidence limits 8.9-10.6; read-out: elimination half-life t1/2β (converted)
- Description: Br. J. Cancer (1984), 50, 291-303 Preclinical pharmacokinetics of benznidazole P. Workman', R.A.S. White2, M.I. Walton', L.N. Owen2* & P.R. Twentyman' 1MRC Clinical Oncology and Radiotherapeutics Unit, MRC Centre, Hills Road, Cambridge CB2 2QH, and 2Department of Clinical Veterinary Medicine, University of Cambridge, Madingley Road, Cambridge CB3 OES, UK. […]
reportedMetric: half-life
Please give the number followed by its unit.

What value of half-life has been reported for the following compound? O=C(Cn1ccnc1[N+](=O)[O-])NCc1ccccc1 [benznidazole, N-benzyl-(2-nitroimidazolyl) acetamide]
9.7 h

* * *

- protocolText: Whole plasma pharmacokinetics in dogs (HPLC)
- Assay type: in vivo, dog
- experimentalParameters: collie crossbred, dog, plasma, po, 25 mg/kg, dog A, 25 mg kg-1 oral; samples collected up to 9 h only
reportedMetric: AUC(0-inf)

Recorded AUC(0-inf) for O=C(Cn1ccnc1[N+](=O)[O-])NCc1ccccc1 [benznidazole, N-benzyl-(2-nitroimidazolyl) acetamide] , please?
~800 µg·h/mL

* * *

- protocolText: Whole plasma pharmacokinetics of benznidazole in mice (HPLC)
- Assay type: in vivo, mouse
- experimentalParameters: male, mouse, plasma, ip; BALB/c mice, 68 mg kg-1 (so in the source) i.p., suspension in 50% polyethylene glycol; read-out: elimination half-life (95% confidence limits)
reportedMetric: half-life

Please look up its half-life: O=C(Cn1ccnc1[N+](=O)[O-])NCc1ccccc1 [benznidazole, N-benzyl-(2-nitroimidazolyl) acetamide]
1.6 h

* * *

- protocolText: Whole plasma pharmacokinetics in dogs (HPLC)
- Format: in vivo, dog
- experimentalParameters: collie crossbred, dog, plasma, iv, 5 mg/kg, dog D, 5 mg kg-1 i.v.; read-out: volume of distribution (Vd area), total plasma data
reportedMetric: Vd
Reply with a number, then the unit it belongs to.

If you can, please state the reported Vd value of O=C(Cn1ccnc1[N+](=O)[O-])NCc1ccccc1 [benznidazole, N-benzyl-(2-nitroimidazolyl) acetamide] .
0.53 L/kg

* * *

- protocolText: Penetration into brain and peripheral nerve in dogs
- Assay type: in vivo, dog
- experimentalParameters: dog, brain/plasma, po, 25 mg kg-1, dog G, 25 mg kg-1 oral, 3 h; read-out: brain/plasma ratio
reportedMetric: Kp at 3 h
Note: the reply should be a number with no unit written.

Item under review: O=C(Cn1ccnc1[N+](=O)[O-])NCc1ccccc1 [benznidazole, N-benzyl-(2-nitroimidazolyl) acetamide] . Reported Kp at 3 h?
0.49

* * *

- protocolText: Whole plasma pharmacokinetics in dogs (HPLC)
- Assay type: in vivo, dog
- experimentalParameters: collie crossbred, dog, plasma, iv, 5 mg/kg, dog C, 5 mg kg-1 i.v.; read-out: volume of distribution (Vd area), total plasma data
reportedMetric: Vd (L/kg)
Use L/kg as the unit, but write only the number.

Find the recorded Vd belonging to O=C(Cn1ccnc1[N+](=O)[O-])NCc1ccccc1 [benznidazole, N-benzyl-(2-nitroimidazolyl) acetamide] and report it.
0.52

* * *

- protocolText: 24 h urinary recovery of unchanged drug in mice
- Assay type: in vivo, mouse
- experimentalParameters: male, BALB/c, mouse, urine, ip, 650 mg kg-1, BALB/c mice, 650 mg kg-1 i.p., experiment 2
reportedMetric: dose excreted (%)
Output spec: scalar in %, unitless text.

Looking for the measured dose excreted of O=C(Cn1ccnc1[N+](=O)[O-])NCc1ccccc1 [benznidazole, N-benzyl-(2-nitroimidazolyl) acetamide] , can you help?
5.2

* * *

- protocolText: Whole plasma pharmacokinetics in dogs (HPLC)
- Type: in vivo, dog
- experimentalParameters: beagle, dog, plasma, po, 50 mg/kg, dog F, 50 mg kg-1 oral; 95% confidence limits 6.4-7.3; read-out: elimination half-life t1/2β (converted)
- From the text: Br. J. Cancer (1984), 50, 291-303 Preclinical pharmacokinetics of benznidazole P. Workman', R.A.S. White2, M.I. Walton', L.N. Owen2* & P.R. Twentyman' 1MRC Clinical Oncology and Radiotherapeutics Unit, MRC Centre, Hills Road, Cambridge CB2 2QH, and 2Department of Clinical Veterinary Medicine, University of Cambridge, Madingley Road, Cambridge CB3 OES, UK. […]
reportedMetric: half-life
# answer = value followed by unit

# query: half-life of entry O=C(Cn1ccnc1[N+](=O)[O-])NCc1ccccc1 [benznidazole, N-benzyl-(2-nitroimidazolyl) acetamide]
6.8 h

* * *

- protocolText: Maximum tolerated dose in mice
- experimentalParameters: male, mouse, in vivo, ip; BALB/c mice, i.p., highest dose used; read-out: maximum tolerated dose (about)
reportedMetric: MTD

Entry under review: O=C(Cn1ccnc1[N+](=O)[O-])NCc1ccccc1 [benznidazole, N-benzyl-(2-nitroimidazolyl) acetamide] . Reported MTD?
~832 mg/kg

* * *

- protocolText: Whole plasma pharmacokinetics in dogs (HPLC)
- Assay type: in vivo, dog
- experimentalParameters: collie crossbred, dog, plasma, po, 25 mg/kg, dog C, 25 mg kg-1 oral
reportedMetric: AUC(0-inf)
Please give the number followed by its unit.

Reported AUC(0-inf) for O=C(Cn1ccnc1[N+](=O)[O-])NCc1ccccc1 [benznidazole, N-benzyl-(2-nitroimidazolyl) acetamide] : what is it?
687 µg·h/mL
